In this section we review reported IC50 values for a set of molecules.
- Test system: HCT-116
- assay details: Cytotoxicity against human HCT116 cells
- Assay type: functional, cell-based
readout label: IC50 (mg/L)

1. CC(C)C/C=C/C=C/C(N)=O	21.7
2. CC(C)/C=C/C=C/C(=O)NC1=CC(O)(CCC(N)=O)C=CC1=O (centres undefined) [DARYAMIDE C]	10
3. CC(C)C/C=C/C=C/C(=O)NC1=C[C@@](O)(CCC(N)=O)[C@H](O)CC1=O [DARYAMIDE A]	3.15
4. CC(C)C/C=C/C=C/C(=O)NC1=CC(O)(CCC(N)=O)C=CC1=O (centres undefined) [DARYAMIDE B]	9.99
